So I've got a bunch of compounds here, and I need their cell count values.
protocol.text: inhibitors of TNFa-induced NFkB p65 translocation, primary screen, imaging, HUVEC, MLSMR starter and 10KST1 sets (AID 438);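 also: compound added about 3h40 before a 20 min TNFalpha stimulation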
experimental.parameters: HUVEC TNFa-induced p65 nuclear translocation; measured here: nuclei count (cytotoxicity indicator), at 2.08 µM

>  <compound>
CCOc1ccc2nc(NC(=O)CSc3nnnn3C3CCCCC3)sc2c1

>  <cell count>
401

$$$$
>  <compound>
COc1ccc2nc(CC(C)(C)CC(=O)O)c[n+]([O-])c2c1

>  <cell count>
377

$$$$
>  <compound>
O=c1c2c(-c3ccccc3)csc2nc2n1CCC2

>  <cell count>
518

$$$$
>  <compound>
CCOC(=O)c1cnc2c(OC)cccc2c1N1CCN(c2ccc(OC)cc2)CC1

>  <cell count>
158

$$$$
>  <compound>
COc1ccc(OCCOC(=O)c2cccs2)cc1

>  <cell count>
367

$$$$

Hi there! I need cell count for each item below, if you can.
1. COC(=O)Cc1cc(=O)[nH]c(Nc2nc3ccccc3o2)n1
2. CCOc1ccccc1C1NC(=O)NC(C)=C1C(=O)OC1CCCC1C (stereo not given)

Given back:
354
686

Hi there! I need cell count for each item below, if you can.
1. c1ccn2c(SCc3ccc4c(c3)OCCO4)nnc2c1
2. COCCNC(=O)CC(NS(=O)(=O)c1ccc(NC(C)=O)cc1)C(C)C (stereo not given)
3. Cn1c(=O)c2c(nc3sccn32)n(C)c1=O

Given back:
793
435
463

Hi there! I need cell count for each item below, if you can.
1. Cc1cccc(-c2nnn(CC/C(N)=N/O)n2)c1
2. Cc1nc2ccc(N3C(=O)CCC3=O)cc2[nH]1
3. CCOC(=O)C1=C(C)N(C)C(=O)NC1c1cccc(O)c1 (stereo not given)
4. CC(=O)NC(C)c1nc2ccccc2n1C(C)C (stereo not given)

Given back:
1. 321
2. 282
3. 421
4. 588

Hi there! I need cell count for each item below, if you can.
1. CCn1cc(C(=O)N=c2sc3ccccc3n2C)c(=O)c2ccc(C)nc21
2. O=c1[nH]c2ccc(Br)cc2c(-c2ccccc2)c1N1CCOCC1
3. COc1ccc(-c2cc(C(F)(F)F)n3nc(C(=O)N4CCOCC4)nc3n2)cc1
4. CC(C)n1c(NCc2c[nH]c3ccccc23)nc2ccccc21
5. Cn1cc(C(=O)c2ccc(F)cc2)cc1-c1nc2ccccc2n1C
6. CCc1cc(=O)n2[nH]c(C)c(-c3ccccc3OC)c2n1
7. N#CC1=C(N)SC(N)=C(C#N)C1c1ccc(C(F)(F)F)cc1

Given back:
450
728
620
489
357
595
520
